- Target desc: LSD1_(172-833), lysine-specific demethylase 1 (human, UniProt O60341-1 172-833)
- Method summary: SPR; LSD1 immobilised by amine coupling on CM5 (12 000-15 000 RU), peptides injected; TBS-T (25 mM Tris, 150 mM HCl as printed, 0.05% Tween-20, 1 mM DTT, pH 8.0), 15 °C; 1:1 Langmuir model or steady state; highest tested concentration 200 μM
- Experimental parameters: both partners purified
Ends that are not written are not given here.
Property name: Kd (µM)
Respond with the bare value in µM.

Need Kd of PRTMQTARKST-NH2 [A1P-substituted H3_(1-11) K4M (peptide 11)] , thanks.
10
